Item-by-item account of melting point

Worked cases, melting point given:
[
  {
    "Molecule": "O=C1CCCc2cc(CCN3CCN(c4nsc5ccccc45)CC3)ccc2N1",
    "Parameter Measured": "melting point",
    "Value Reported": "173 to 174 °C"
  },
  {
    "Molecule": "O=C(O)c1[nH]c2ccc(Cl)cc2c1S(=O)c1ccccc1 (configuration not stated)",
    "Parameter Measured": "melting point",
    "Value Reported": "183 to 185 °C"
  },
  {
    "Molecule": "CC(=O)Nc1nc2cnccc2s1",
    "Parameter Measured": "melting point",
    "Value Reported": "> 212 °C"
  },
  {
    "Molecule": "COc1ccc(N2N=C3c4ccccc4SCCC3CC2=O)cc1 (configuration not stated)",
    "Parameter Measured": "melting point",
    "Value Reported": "143 to 145 °C"
  }
]

Request: Fill blank: measured melting point of the molecule CCCCCc1c(-c2ccc3c(Br)c(OCC(=O)O)ccc3c2)oc2ccccc12 is ____.
Response: 159 to 161 °C

Request: Fill blank: measured melting point of the molecule O=S1CCN(c2nc(N3CCNCC3)cc3ccc(Cl)cc23)CC1 is ____.
Response: 209 to 211 °C

Request: Fill blank: measured melting point of the molecule O=C1C[C@@H]2[C@@H](/C=C/C(=O)C3CCCCC3)[C@H](OC(=O)c3ccccc3)C[C@@H]2O1 is ____.
Response: 151 to 153 °C

Request: Fill blank: measured melting point of the molecule Cc1cc2c(-c3cccc(C=O)c3)c(CC(=O)O)c(=O)oc2cc1Cl is ____.
Response: 230 to 232 °C

Request: Fill blank: measured melting point of the molecule CC(=O)NC1CCS(=O)(=O)c2sc(S(N)(=O)=O)cc21 (configuration not stated) is ____.
Response: 263 to 265 °C

Request: Fill blank: measured melting point of the molecule c1ccc(C2Cn3c(nc4cc5ccccc5cc43)S2)nc1 (configuration not stated) is ____.
Response: 198 °C

Request: Fill blank: measured melting point of the molecule c1ccc(Cc2n[nH]c(NCCCCOc3cccc(CN4CCCCC4)c3)n2)cc1 is ____.
Response: 145 to 146 °C

Request: Fill blank: measured melting point of the molecule CC(C)(C)OC(=O)N[C@@H]1C[C@H](C(=O)O)Nc2cc(Cl)cc(Cl)c21 (relative stereo) is ____.
Response: 186 to 188 °C

Request: Fill blank: measured melting point of the molecule CCN1C(=O)c2cccc3c(S(C)(=O)=O)ccc1c23 is ____.
Response: 199 to 203 °C

Request: Fill blank: measured melting point of the molecule CC(C)(C)[C@@H](O)c1cccc(-c2ccc(OCCO)cc2)n1 is ____.
Response: 104 °C

Request: Fill blank: measured melting point of the molecule CCCCNC(=S)Nc1cccc(-c2ccnc3c(C(=O)c4cccs4)cnn23)c1 is ____.
Response: 155 to 157 °C

Request: Fill blank: measured melting point of the molecule CSc1ccc(-c2ccccn2)c2c1C(=O)CC(C)(C)C2 is ____.
Response: 152 to 154 °C

Request: Fill blank: measured melting point of the molecule Cc1ccc(CSc2nc3cc4c(cc3[nH]2)OCCO4)nc1 is ____.
Response: 155 to 156 °C

Request: Fill blank: measured melting point of the molecule CN1C(c2ccc(C#N)cc2)=NC(C(F)(F)F)(C(F)(F)F)C1NC(=O)c1ccc(CF)cc1 (configuration not stated) is ____.
Response: 189 to 190 °C

Request: Fill blank: measured melting point of the molecule COc1ccc2[nH]cc(-c3cc4c(OC)ccnc4[nH]3)c2c1 is ____.
Response: 294 to 295 °C

Request: Fill blank: measured melting point of the molecule COc1ccc(/C=C/C(=O)c2ccc(C(=O)O)cc2)c(-c2cccs2)c1 is ____.
Response: 209 to 211 °C

Request: Fill blank: measured melting point of the molecule O=C1c2cc(OCc3ccccc3)ccc2OCC1Oc1cccnc1 (configuration not stated) is ____.
Response: 133 to 134 °C

Request: Fill blank: measured melting point of the molecule COc1ccccc1C(=O)C=Cc1ccncc1 is ____.
Response: 70 °C

Request: Fill blank: measured melting point of the molecule CCN(CC)CCc1nc(Cn2cnc3c2c(=O)n(C)c(=O)n3C)no1 is ____.
Response: 69 to 70 °C

Request: Fill blank: measured melting point of the molecule COC(=O)c1ccc2c(c1)N(C(C)C)C(=O)C(C)(C)O2 is ____.
Response: 75 to 77 °C

Request: Fill blank: measured melting point of the molecule O=P1(c2ccc(Cl)cc2)c2ccccc2CN1c1ccccc1 (configuration not stated) is ____.
Response: 180 to 182 °C

Request: Fill blank: measured melting point of the molecule C[C@H](C(=O)NC[C@H](COC(=O)C(C)(C)C)Cc1ccccc1)c1ccc(NS(C)(=O)=O)c(F)c1 is ____.
Response: 40 to 42 °C

Request: Fill blank: measured melting point of the molecule CC(=O)Nc1cccc(-c2ccnc3c(C#N)cnn23)c1 is ____.
Response: 252 to 254 °C

* * *

Item-by-item account of melting point

Worked cases, melting point given:
[
  {
    "Compound": "CN(CCCN1C(=O)CSC1c1cc(C(C)(C)C)c(O)c(C(C)(C)C)c1)CCOc1ccc2c(c1)OCO2 (stereo not drawn)",
    "melting point": "70 to 71 °C"
  },
  {
    "Compound": "Cn1nc(CO)nc1NCCCCOc1cccc(CN2CCCCC2)c1",
    "melting point": "82 to 83 °C"
  },
  {
    "Compound": "CS(=O)(=O)c1ccc(-c2cnn(CC3CC3)c(=O)c2-c2ccc(F)cc2)cc1",
    "melting point": "118 to 121 °C"
  }
]

Request: Fill blank: measured melting point of the compound COC(=O)C=Cc1ccc(OCCc2nc(-c3ccccc3)oc2C)cc1 is ____.
Response: 114 to 115 °C

Request: Fill blank: measured melting point of the compound O=C(Nc1cc(C(F)(F)F)cc(C(F)(F)F)c1)c1ccccc1O is ____.
Response: 196 to 198 °C

Request: Fill blank: measured melting point of the compound COCc1cc(-c2ccccc2)c(=O)n2c1-c1sccc1CC2 is ____.
Response: 120 °C

Request: Fill blank: measured melting point of the compound COc1ccc(N2CCN(c3ccc(NC(=O)NCC(OC)OC)cc3)CC2)cc1 is ____.
Response: 225 °C

* * *

Parameter Measured: melting point

Worked cases, melting point given:
[
  {
    "Compound": "COC(=O)c1ccc(CC(C)NCC(O)c2cccc(Cl)c2)cc1 (stereo unspecified)",
    "melting point": "94 to 96 °C"
  },
  {
    "Compound": "CC(=O)Nc1cccc(-c2ccc(C)c(COc3cccc4ccc(C)nc34)c2C)c1",
    "melting point": "197 to 199 °C"
  },
  {
    "Compound": "O=CNC1=NN(c2cccc(Cl)n2)CC1",
    "melting point": "190 to 192 °C"
  }
]

Request: Fill blank: measured melting point of the compound Cc1cc([C@H]2CN3C(=O)N(c4cc(Cl)nc(Cl)c4)C(=O)[C@]3(Cc3ccc(OC(F)(F)F)cc3)C2)c(C)[nH]1 is ____.
Response: 112 °C

* * *

Item-by-item account of melting point

Worked cases, melting point given:
[
  {
    "Compound": "CC(C)(C)[Si](C)(C)OCc1ccc(C(=NO)C(F)(F)F)cc1",
    "melting point": "63 to 65 °C"
  },
  {
    "Compound": "CCc1nc2c(-c3ccc(OC)cc3Cl)ncnc2n1C(C1CC1)C1CC1",
    "melting point": "139 to 140 °C"
  },
  {
    "Compound": "CCCCNC(=S)N1CCc2[nH]cnc2C1",
    "melting point": "130 °C"
  },
  {
    "Compound": "CCCCCC(C)Nc1nnc(-c2cccc(Oc3ccc(C(C)(C)C)cc3)c2)s1 (centres undefined)",
    "melting point": "115 to 116 °C"
  }
]

Request: Fill blank: measured melting point of the compound CCOC(=O)N/N=C/c1ccc(OC)c(OC2CCCC2)c1 is ____.
Response: 146 to 147 °C

Request: Fill blank: measured melting point of the compound CC(C)n1cc(C2(c3ccc(F)c(Br)c3)N=C(N)N(C)C2=O)cn1 (centres undefined) is ____.
Response: 80 to 82 °C

Request: Fill blank: measured melting point of the compound COc1ccccc1CCN1CC(=O)N(c2cnn(Cc3c(C)noc3C)c2)C1=O is ____.
Response: 97 to 98 °C

Request: Fill blank: measured melting point of the compound NS(=O)(=O)c1ncccc1O is ____.
Response: 162 to 164 °C

Request: Fill blank: measured melting point of the compound CCOc1nc2cc(C)nn2c2c1cnc1c2cnn1CC is ____.
Response: 142 to 144 °C
